# tested-on: Sodium-dependent dopamine transporter (Rattus norvegicus, UniProt P23977)
# Sequence (P23977 whole entry): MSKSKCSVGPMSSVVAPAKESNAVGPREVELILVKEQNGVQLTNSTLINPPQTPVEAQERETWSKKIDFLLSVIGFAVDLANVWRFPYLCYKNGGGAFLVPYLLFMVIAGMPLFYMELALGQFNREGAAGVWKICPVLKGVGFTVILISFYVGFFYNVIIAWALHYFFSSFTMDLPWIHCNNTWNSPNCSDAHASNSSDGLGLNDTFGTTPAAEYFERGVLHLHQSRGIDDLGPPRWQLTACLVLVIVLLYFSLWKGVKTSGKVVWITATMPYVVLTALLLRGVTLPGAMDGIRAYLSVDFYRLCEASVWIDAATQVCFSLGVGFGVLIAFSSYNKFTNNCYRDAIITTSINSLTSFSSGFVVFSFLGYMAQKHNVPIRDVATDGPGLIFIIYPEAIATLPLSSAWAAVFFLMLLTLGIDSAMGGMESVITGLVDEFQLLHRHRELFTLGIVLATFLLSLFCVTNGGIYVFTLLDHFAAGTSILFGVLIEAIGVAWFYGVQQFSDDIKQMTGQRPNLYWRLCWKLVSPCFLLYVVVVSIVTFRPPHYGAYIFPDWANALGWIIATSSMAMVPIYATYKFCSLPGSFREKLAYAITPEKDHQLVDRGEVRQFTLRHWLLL
# assay-text: Displacement of [3H]WIN 35428 from Sprague-Dawley rat striatal tissue after 2 hrs by liquid scintillation counting
# Format: tissue-based, Striatum
# condition-details: read-out: IC50
Exercise: for every item that follows, state its recorded IC50.
Could you give me the number in nM? Just the number is fine.

Query COC(=O)[C@H](c1ccccc1Cl)[C@H]1CCCCN1 yields IC50 of 1950

Query OC[C@H](c1ccc(Cl)c(Cl)c1)[C@H]1CCCCN1 (racemic) yields IC50 of 4.2

Query COC(=O)[C@H](c1ccc(OC)c(OC)c1)[C@H]1CCCCN1 yields IC50 of 810

Query COC(=O)[C@H](c1ccc(OCO)c(CO)c1)[C@H]1CCCCN1C yields IC50 of 620

Query NC(=O)[C@H](c1ccccc1)[C@H]1CCCCN1Cc1ccccc1 (racemic) yields IC50 of 384

Query COC(=O)[C@H](c1ccccc1)[C@H]1CCCCN1Cc1ccc([N+](=O)[O-])cc1 (racemic) yields IC50 of 113

Query COC[C@H](c1ccc(Cl)c(Cl)c1)[C@H]1CCCCN1Cc1ccccc1 (racemic) yields IC50 of 4.2

Query OC[C@H](c1ccccc1)[C@H]1CCCCN1CCc1ccccc1 (racemic) yields IC50 of 1430

Query OC[C@H](c1cccc(F)c1)[C@H]1CCCCN1 (racemic) yields IC50 of 281

Query COC(=O)[C@H](c1ccc(Cl)cc1)[C@H]1CCCCN1 yields IC50 of 20.6

Query COC(=O)[C@H](c1cccc(Cl)c1)[C@@]1(C)CCCCN1C yields IC50 of 160

Query COC(=O)[C@H](c1ccccc1)[C@H]1CCCCN1Cc1ccccc1 yields IC50 of 52.9

Query OC[C@H](c1ccccc1)[C@H]1CCCCN1Cc1cccc(Cl)c1 (racemic) yields IC50 of 25.8

Query COC(=O)[C@H](c1ccc(Br)cc1)[C@H]1CCCCN1 yields IC50 of 6.9

Query COC(=O)[C@H](c1cc(Cl)cc(Cl)c1)[C@H]1CCCCN1 (racemic) yields IC50 of 65.6

Query COC(=O)[C@H](c1ccc(C)cc1)[C@H]1CCCCN1 yields IC50 of 33

Query COC(=O)[C@H](c1ccccc1)[C@H]1CCCCN1Cc1ccc(Cl)s1 (racemic) yields IC50 of 392

Query COC[C@H](c1ccccc1)[C@H]1CCCCN1 (racemic) yields IC50 of 97.1

Query COC[C@H](c1ccccc1)[C@H]1CCCCN1Cc1ccccc1 yields IC50 of 17.8

Query COC(=O)[C@H](c1ccccc1)[C@H]1CCCCN1CCCCc1ccccc1 (racemic) yields IC50 of 205

Query CCN1CCCC[C@@H]1[C@H](CO)c1ccccc1 (racemic) yields IC50 of 2340

These measurements were taken from ChEMBL document CHEMBL1250552.
